pEC50 values, listed per item
Target: TLR7 (Homo sapiens (Human))
Assay: TLR7 human peripheral blood mononuclear cell (PBMC) cell-based assay (GS-986 as agonist; IL-6 and IFNα readout)
Details: human PBMCs, TLR7 agonist GS-986 at 400 nM, 6 hours, antagonist potency; read-out: TLR-7 EC50
pEC50 here is simply -log10 of the concentration when that concentration is written in mol/L.

Could you please provide reported pEC50 for `Cc1c(-c2[nH]c3sc(C4CCN(C(=O)C5(N)COC5)CC4)c(C)c3c2C(C)C)cn2ncnc2c1C` ? Thanks!
9.47

Please give measured pEC50 of the following entry: `Cc1c(-c2[nH]c3sc(C4CCN(C(=O)[C@@H]5CC(F)(F)CCN5)CC4)c(C)c3c2C(C)C)cn2ncnc2c1C`
8.92

Please turn your attention to the following entry.
Recall and state the measured pEC50 for `Cc1c(-c2[nH]c3sc(C4CCN(C(=O)[C@@H]5NCCO[C@H]5C)CC4)c(C)c3c2C(C)C)cn2ncnc2c1C` .
8.66

----------
Biological target: TLR7 (Homo sapiens (Human), UniProt Q9NYK1)
Sequence (Q9NYK1 27-1049): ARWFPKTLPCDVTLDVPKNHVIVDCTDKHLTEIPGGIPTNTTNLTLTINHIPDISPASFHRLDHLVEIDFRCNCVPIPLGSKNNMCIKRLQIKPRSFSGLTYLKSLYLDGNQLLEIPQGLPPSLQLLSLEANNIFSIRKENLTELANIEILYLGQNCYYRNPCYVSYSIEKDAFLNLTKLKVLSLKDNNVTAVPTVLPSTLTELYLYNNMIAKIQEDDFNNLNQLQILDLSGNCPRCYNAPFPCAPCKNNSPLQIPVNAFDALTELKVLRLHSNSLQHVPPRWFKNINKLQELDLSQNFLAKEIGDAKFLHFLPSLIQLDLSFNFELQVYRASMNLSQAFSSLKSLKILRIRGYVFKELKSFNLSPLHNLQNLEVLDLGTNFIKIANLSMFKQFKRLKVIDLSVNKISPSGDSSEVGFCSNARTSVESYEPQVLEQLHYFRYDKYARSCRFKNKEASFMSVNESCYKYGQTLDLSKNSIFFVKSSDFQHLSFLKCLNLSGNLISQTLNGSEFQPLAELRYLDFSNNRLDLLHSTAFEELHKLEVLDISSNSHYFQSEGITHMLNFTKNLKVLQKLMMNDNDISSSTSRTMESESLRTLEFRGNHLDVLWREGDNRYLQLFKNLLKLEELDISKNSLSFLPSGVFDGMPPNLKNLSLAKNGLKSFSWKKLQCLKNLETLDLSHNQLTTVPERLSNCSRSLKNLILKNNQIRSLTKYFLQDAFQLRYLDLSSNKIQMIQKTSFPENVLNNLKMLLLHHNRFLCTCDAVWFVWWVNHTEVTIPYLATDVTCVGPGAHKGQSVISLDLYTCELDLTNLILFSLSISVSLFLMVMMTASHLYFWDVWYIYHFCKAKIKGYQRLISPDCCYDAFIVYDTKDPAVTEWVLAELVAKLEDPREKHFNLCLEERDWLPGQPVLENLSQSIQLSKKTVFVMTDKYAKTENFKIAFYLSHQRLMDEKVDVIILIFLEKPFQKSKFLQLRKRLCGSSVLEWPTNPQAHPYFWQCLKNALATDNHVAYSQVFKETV
Test: TLR7 human peripheral blood mononuclear cell (PBMC) cell-based assay (GS-986 as agonist; IL-6 and IFNα readout)
Details: human PBMCs, TLR7 agonist GS-986 at 400 nM, 6 hours, antagonist potency; read-out: TLR-7 EC50
Description: Human peripheral blood mononuclear cells (PBMCs) consist of lymphocytes, monocytes and dendritic cells that express TLR7, TLR8 and TLR9. […] After counting, the cell density was adjusted to 2 million cells/ml and incubated for 1 hour at 37° C., 5% CO2 for recovery. […] The level of cytokines (IL-6 and IFNα) in the supernatant was measured by electrochemiluminescence immunoassays (Mesoscale Discovery) following manufacturer's recommended protocols.
Strictly below 0.2 nM in EC50: yes. Otherwise: no.

Please let me know if `CNC(=O)CN1CCC(c2sc3[nH]c(-c4cc(C)c5ncnn5c4)c(C(C)C)c3c2C)CC1` shows EC50 below 0.2 nM.
no

Answer whether the compound `Cc1c(-c2[nH]c3sc([C@@H]4C[C@@H]5C[C@H]4CN5C4COC4)c(C)c3c2C(C)C)cn2ncnc2c1C` has EC50 strictly less than 0.2 nM
yes

Consider `CCc1c(C2CCN(CC(N)=O)CC2)sc2[nH]c(-c3cc(C)c4ncnn4c3)c(C(C)C)c12` . Does its EC50 lie strictly below 0.2 nM?
yes

State whether 0.2 nM exceeds EC50 recorded for `CCNC(=O)CN1C[C@@H]2C[C@H]1C[C@H]2c1sc2[nH]c(-c3cn4ncnc4c(C)c3C)c(C(C)C)c2c1C` .
no

---
Answer whether the compound `Cc1c(-c2[nH]c3sc([C@H]4C[C@H]5C[C@@H]4CN5CC(N)=O)c(C)c3c2C(C)C)cn2ncnc2c1C` has EC50 strictly less than 0.2 nM
yes

Record `Cc1c(-c2ccc(N3CCNCC3)nc2)sc2[nH]c(-c3cc(C)c4ncnn4c3)c(C(C)C)c12` : is its EC50 strictly below 0.2 nM?
no

Record `Cc1c(C2CCN(C(=O)[C@H]3COCCN3)CC2)sc2[nH]c(-c3cc(C)c4ncnn4c3)c(C(C)C)c12` : is its EC50 strictly below 0.2 nM?
yes

----------
Biological target: UniProt:Q9NYK1
Assay: TLR7 human peripheral blood mononuclear cell (PBMC) cell-based assay (GS-986 as agonist; IL-6 and IFNα readout)
Conditions: human PBMCs, TLR7 agonist GS-986 at 400 nM, 6 hours, antagonist potency; read-out: TLR-7 EC50
Listed next: entries and their corresponding EC50.
Please respond with the number in nM and leave the unit unwritten.

Recall the reported EC50 of `Cc1c(C2CCN(C(=O)[C@H]3COCCN3C)CC2)sc2[nH]c(-c3cc(C)c4ncnn4c3)c(C(C)C)c12` when tested on UniProt:Q9NYK1.
0.29

Enter measured EC50, system UniProt:Q9NYK1, for the molecule shown: `Cc1c(C2CCN(C(=O)C34CC(CN3)C4)CC2)sc2[nH]c(-c3cc(C)c4ncnn4c3)c(C(C)C)c12`
0.07

State the measured EC50 (UniProt:Q9NYK1) of `Cc1c(C2CC3(CNC3)C2)sc2[nH]c(-c3cc(C)c4ncnn4c3)c(C(C)C)c12`
0.24

Let us examine a further case.
Param request: EC50 | system UniProt:Q9NYK1 | item `Cc1c(-c2[nH]c3sc([C@H]4C[C@@H]5C[C@H]4CN5)c(C)c3c2C(C)C)cn2ncnc2c1C`
0.4

----------
Experiment: physchem
Conditions: 22.8 °C, pH 7.4, aqueous buffer, kinetic from dmso stock
assay endpoint: solubility kinetic at 24 h (µg/mL)
# unit: µg/mL | format: bare number

Give the value of solubility kinetic at 24 h reported for the following: `Cc1c(-c2[nH]c3sc([C@@H]4C[C@H]5CC[C@@H](C4)N5CC(N)=O)c(C)c3c2C(C)C)cn2ncnc2c1C`
2.2

----------
Target: TLR8 (Homo sapiens (Human), UniProt Q9NR97)
Sequence (Q9NR97 27-1041): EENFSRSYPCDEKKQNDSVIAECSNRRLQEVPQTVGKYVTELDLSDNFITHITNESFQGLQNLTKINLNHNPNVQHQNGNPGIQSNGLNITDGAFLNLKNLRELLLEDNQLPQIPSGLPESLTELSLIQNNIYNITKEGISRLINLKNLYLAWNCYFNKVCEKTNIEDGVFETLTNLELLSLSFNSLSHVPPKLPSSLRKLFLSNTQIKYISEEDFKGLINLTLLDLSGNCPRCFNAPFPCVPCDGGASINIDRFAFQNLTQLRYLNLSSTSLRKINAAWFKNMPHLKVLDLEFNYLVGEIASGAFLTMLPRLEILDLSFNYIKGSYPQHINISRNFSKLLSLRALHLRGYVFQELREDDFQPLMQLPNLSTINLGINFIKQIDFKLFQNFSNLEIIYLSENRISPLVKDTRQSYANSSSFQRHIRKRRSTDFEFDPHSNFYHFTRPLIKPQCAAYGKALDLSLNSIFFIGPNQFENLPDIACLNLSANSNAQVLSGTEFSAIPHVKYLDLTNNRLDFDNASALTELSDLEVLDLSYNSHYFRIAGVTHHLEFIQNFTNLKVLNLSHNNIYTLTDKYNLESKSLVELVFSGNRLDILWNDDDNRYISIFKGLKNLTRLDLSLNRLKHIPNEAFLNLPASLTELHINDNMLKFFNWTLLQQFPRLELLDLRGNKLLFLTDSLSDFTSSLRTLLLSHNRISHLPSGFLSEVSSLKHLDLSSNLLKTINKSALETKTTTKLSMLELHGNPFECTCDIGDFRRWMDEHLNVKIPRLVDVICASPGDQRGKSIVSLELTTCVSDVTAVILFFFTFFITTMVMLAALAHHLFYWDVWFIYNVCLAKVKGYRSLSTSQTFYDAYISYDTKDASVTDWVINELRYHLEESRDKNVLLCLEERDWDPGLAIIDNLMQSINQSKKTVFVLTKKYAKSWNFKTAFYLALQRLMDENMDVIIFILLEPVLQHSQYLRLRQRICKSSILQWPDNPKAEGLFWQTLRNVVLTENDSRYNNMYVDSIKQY
Test: TLR8 human peripheral blood mononuclear cell (PBMC) cell-based assay (Compound A as agonist; TNFα and IL12p40 readout)
Settings: human PBMCs, TLR8 agonist Compound A at 800 nM, 6 hours, antagonist potency; read-out: TLR-8 EC50
Measured log10 EC50 of individual entries
Response schema: value (number) is log10 of EC50 in units of µM.

Solved entries:
Look up and report measured log10 EC50 (TLR8 (Homo sapiens (Human), UniProt Q9NR97)) for the following compound: `CO[C@H]1CN[C@@H](C(=O)N2CCC(c3sc4[nH]c(-c5cc(C)c6ncnn6c5)c(C(C)C)c4c3C)CC2)C1`
-1.88

Report value only: log10 EC50, TLR8 (Homo sapiens (Human), UniProt Q9NR97), Cc1c(-c2[nH]c3sc(C4CCN(C5CCN(C)C5=O)CC4)c(C)c3c2C(C)C)cn2ncnc2c1C (stereo not shown)
-1.65

Give log10 EC50; test system TLR8 (Homo sapiens (Human), UniProt Q9NR97); compound `Cc1c(-c2[nH]c3sc(C4CCN(C(=O)[C@H]5COCCN5)CC4)c(C)c3c2C(C)C)cn2ncnc2c1C`
-2.61

Provide the reported log10 EC50 (system: TLR8 (Homo sapiens (Human), UniProt Q9NR97)) for `Cc1c(-c2ccc3[nH]c([C@H]4N[C@@H]5CC[C@H]4C5)nc3c2)sc2[nH]c(-c3cc(C)c4ncnn4c3)c(C(C)C)c12`
-1.58

Jot down log10 EC50 (TLR8 (Homo sapiens (Human), UniProt Q9NR97)) of `Cc1cc(-c2[nH]c3sc(C4CCN(CC(N)=O)CC4)cc3c2C(C)C)cn2ncnc12` .
-2.79

Enter measured log10 EC50, system TLR8 (Homo sapiens (Human), UniProt Q9NR97), for the compound shown: Cc1c(-c2[nH]c3sc([C@H]4C[C@@H]5CC[C@H]4CN5CC(=O)N(C)C)c(C)c3c2C(C)C)cn2ncnc2c1C (single isomer, unassigned)
-2.17

Please turn your attention to the following entry.
Look up and report log10 EC50, with TLR8 (Homo sapiens (Human), UniProt Q9NR97) as system, for `Cc1c(CC2CCN(CC(N)=O)CC2)sc2[nH]c(-c3cc(C)c4ncnn4c3)c(C(C)C)c12`
-2.00

----------
The entries below are paired with their reported EC50.
Target: TLR8 (Homo sapiens (Human), UniProt Q9NR97)
Assay: TLR8 human peripheral blood mononuclear cell (PBMC) cell-based assay (Compound A as agonist; TNFα and IL12p40 readout)
Conditions: human PBMCs, TLR8 agonist Compound A at 800 nM, 6 hours, antagonist potency; read-out: TLR-8 EC50
Answer format: value, then unit.

Input Cc1c(-c2[nH]c3sc(C4CCC45CN(CC(N)=O)C5)c(C)c3c2C(C)C)cn2ncnc2c1C (single isomer, unassigned) [Example 316] , output reported EC50.
108 nM

Answer with the recorded EC50 for the molecule listed here: `Cc1c(C2CCN(CCO)CC2)sc2[nH]c(-c3cc(C)c4ncnn4c3)c(C(C)C)c12`
7.11 nM

Assign EC50 to the following record: `Cc1c(-c2[nH]c3sc([C@@H]4C[C@@H]5C[C@H]4CN5CC(=O)NC4CC4)c(C)c3c2C(C)C)cn2ncnc2c1C`
0.34 nM

Answer with reported EC50 of `Cc1cc(-c2[nH]c3sc(C4CCN(C(=O)[C@H]5COCCN5)CC4)cc3c2C(C)C)cn2ncnc12`
15.5 nM

Please report the measured EC50 for `Cc1c(C2CCN(C(=O)C34CC(F)(CN3)C4)CC2)sc2[nH]c(-c3cc(C)c4ncnn4c3)c(C(C)C)c12`
12.3 nM

Give the measured EC50 for `Cc1c(-c2[nH]c3sc([C@@H]4C[C@@H]5C[C@H]4CN5CC(N)=O)c(C)c3c2C(C)C)cn2nc(Cl)nc2c1C`
0.29 nM

For the molecule `Cc1c(-c2[nH]c3sc(C4CC5(CNC5)C4)c(C)c3c2C(C)C)cn2ncnc2c1C` , give its measured EC50 value.
0.93 nM

Give the value of EC50 reported for the following: `Cc1c(-c2[nH]c3sc([C@@H]4C[C@@H]5C[C@H]4CN5Cc4nnc[nH]4)c(C)c3c2C(C)C)cn2ncnc2c1C`
0.12 nM

Could you please provide reported EC50 for Cc1c(-c2[nH]c3sc(C4CCC(N5CC6(CCNC6=O)C5)CC4)c(C)c3c2C(C)C)cn2ncnc2c1C (single isomer, unassigned) [Example 305] ? Thanks!
4.44 nM

Identify measured EC50 corresponding to `Cc1c(C2CCNCC2)sc2[nH]c(-c3ccc(C#N)c4ncccc34)c(C(C)C)c12`
13.5 nM

In one line, give reported EC50 of the entry `Cc1c(C2CCNCC2)sc2[nH]c(-c3ccc(C#N)c4nccnc34)c(C(C)C)c12` .
106 nM

In one line, give reported EC50 of the entry Cc1c(C2CCN(C(=O)C3(C)COCCN3)CC2)sc2[nH]c(-c3cc(C)c4ncnn4c3)c(C(C)C)c12 (centres unmarked) .
19.3 nM

Let me know recorded EC50 for `Cc1c(-c2[nH]c3sc([C@@H]4C[C@@H]5C[C@H]4CN5CC(=O)NC(C)C)c(C)c3c2C(C)C)cn2ncnc2c1C` , thanks.
0.57 nM

Answer with the recorded EC50 for the molecule listed here: `Cc1c(C2CCN(C(=O)[C@H]3C[C@H](F)CN3)CC2)sc2[nH]c(-c3cc(C)c4ncnn4c3)c(C(C)C)c12`
19 nM
